Target: Tumor necrosis factor ligand superfamily member 11/11A (Mus musculus) (UniProt O35235+O35305)
Sequence (O35235 139-316 limits assumed): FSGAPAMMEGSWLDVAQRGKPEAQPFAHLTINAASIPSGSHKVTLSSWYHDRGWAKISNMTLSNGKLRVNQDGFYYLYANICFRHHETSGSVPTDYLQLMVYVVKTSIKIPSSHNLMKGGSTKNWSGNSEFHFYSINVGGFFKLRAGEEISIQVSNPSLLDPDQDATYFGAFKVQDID
Sequence (O35305 31-625 partner limits assumed): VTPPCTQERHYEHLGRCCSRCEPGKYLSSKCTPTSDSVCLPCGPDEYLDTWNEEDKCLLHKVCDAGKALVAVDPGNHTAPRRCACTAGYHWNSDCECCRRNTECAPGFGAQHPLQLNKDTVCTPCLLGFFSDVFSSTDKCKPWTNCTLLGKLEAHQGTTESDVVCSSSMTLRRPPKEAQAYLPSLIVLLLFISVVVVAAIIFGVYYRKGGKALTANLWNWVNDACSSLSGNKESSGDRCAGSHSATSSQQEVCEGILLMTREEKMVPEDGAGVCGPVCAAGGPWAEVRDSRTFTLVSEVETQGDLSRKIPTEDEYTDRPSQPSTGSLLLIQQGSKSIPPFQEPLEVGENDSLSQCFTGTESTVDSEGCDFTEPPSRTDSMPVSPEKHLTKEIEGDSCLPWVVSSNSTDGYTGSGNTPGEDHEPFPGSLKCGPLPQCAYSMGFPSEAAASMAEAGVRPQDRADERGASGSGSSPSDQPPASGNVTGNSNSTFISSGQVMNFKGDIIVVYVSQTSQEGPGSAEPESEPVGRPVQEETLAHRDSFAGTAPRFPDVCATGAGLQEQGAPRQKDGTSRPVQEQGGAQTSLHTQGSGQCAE
Test: Inhibition of RANKL-RANK protein-protein interaction in C57/BL6 mouse bone marrow macrophage assessed as suppression of M-CSF/mRANKL-induced osteoclastogenesis by measuring reduction in TRAP activity at 5 uM measured after 3 days by colorimetric assay relative to control
Each entry below carries its recorded inhibition.

1. Cc1cccc(C)c1NC(=O)C(Cc1c[nH]c2ccc(F)cc12)NC(=O)CCc1ccccc1 (racemic): 83.9%
2. COc1cccc(CCC(=O)NC(Cc2c[nH]c3ccccc23)C(=O)Nc2c(C)cccc2C)c1 (racemic): 41.7%
3. COc1ccc2[nH]cc(CC(NC(=O)CCc3ccccc3)C(=O)Nc3c(C)cccc3C)c2c1 (racemic): 84.4%
4. Cc1cccc(C)c1NC(=O)C(Cc1c[nH]c2ccccc12)NC(=O)CCc1cccs1 (racemic): 65.4%
5. Cc1cccc(C)c1NC(=O)C(Cc1c[nH]c2ccccc12)NC(=O)CCCc1ccccc1 (racemic): 79.3%
6. Cc1cccc(C)c1NC(=O)C(Cc1c[nH]c2ccccc12)NC(=O)CCc1ccccc1 (racemic): 90.3%

# input inhibition lookup needed for Cc1cccc(C)c1NC(=O)C(Cc1c[nH]c2ccccc12)NC(=O)Cc1ccccc1 (racemic) , thanks.
# output 52.1%

# input So what does the record say about inhibition for Cc1cccc(C)c1NC(=O)C(Cc1c[nH]c2ccccc12)NC(=O)CCc1cccc(Cl)c1 (racemic) ?
# output 69.5%

# input Any idea what its inhibition is? The compound is Cc1cccc(C)c1NC(=O)C(Cc1c[nH]c2ccccc12)NC(=O)CCc1cccnc1 (racemic)
# output 66.5%

# input Which measured inhibition value corresponds to O=C(CCc1ccccc1)NC(Cc1c[nH]c2ccccc12)C(=O)Nc1ccccc1F (racemic) ?
# output 74%

# input Form field: reported inhibition of Cc1cccc(C)c1NC(=O)C(Cc1c[nH]c2cc(F)ccc12)NC(=O)CCc1ccccc1 (racemic)
# output 89.4%

Sourced from ChEMBL document CHEMBL4396880
